- experimental system: 5-hydroxytryptamine receptor 2A (Homo sapiens, UniProt P28223)
- Sequence (P28223 whole entry): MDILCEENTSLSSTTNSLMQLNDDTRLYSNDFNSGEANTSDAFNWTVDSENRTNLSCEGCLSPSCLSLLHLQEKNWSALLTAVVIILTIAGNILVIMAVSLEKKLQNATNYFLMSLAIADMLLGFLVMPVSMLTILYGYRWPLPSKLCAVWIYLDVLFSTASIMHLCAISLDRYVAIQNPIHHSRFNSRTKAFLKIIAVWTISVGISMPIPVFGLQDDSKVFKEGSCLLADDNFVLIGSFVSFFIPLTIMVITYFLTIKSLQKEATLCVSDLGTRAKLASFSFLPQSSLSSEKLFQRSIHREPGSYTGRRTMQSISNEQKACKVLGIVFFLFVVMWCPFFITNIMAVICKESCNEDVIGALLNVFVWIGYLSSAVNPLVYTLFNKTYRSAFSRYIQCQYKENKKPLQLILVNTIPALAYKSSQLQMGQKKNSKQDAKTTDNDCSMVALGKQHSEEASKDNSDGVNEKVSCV
- assay details: Displacement of [3H]ketanserin from human 5-HT2A receptor
value type: pKi
Field pKi (float): negative decimal logarithm of the concentration in molar.

// solved cases for pKi follow
compound="O=C1CC(CN2CCC(C(=O)c3ccc(F)cc3)CC2)Cc2cc(-c3ccccc3)ccc21 (centres undefined)" experimental_system="5-hydroxytryptamine receptor 2A (Homo sapiens, UniProt P28223)" experimental_result=6.20
compound="COc1ccccc1N1CCN(CCC2CCc3ccc([N+](=O)[O-])cc3C2=O)CC1 (centres undefined)" experimental_system="5-hydroxytryptamine receptor 2A (Homo sapiens, UniProt P28223)" experimental_result=6.10
compound="Nc1ccc2c(c1)C(=O)C(CCN1CCC(C(=O)c3ccc(F)cc3O)CC1)CC2 (centres undefined)" experimental_system="5-hydroxytryptamine receptor 2A (Homo sapiens, UniProt P28223)" experimental_result=7.63

Ask: Write down pKi measured for item Nc1ccc2c(c1)C(O)C(CCN1CCC(C(=O)c3ccc(F)cc3O)CC1)CC2 (centres undefined)
Result: 8.35
